FYI, the data here is from patent US11767302B2.

Experiment: Stopped-flow kinetic analysis of tetrazines with eq-5-hydroxy-trans-cyclooctene in PBS buffer at 25° C.
Settings: PBS pH 7.4, 25° C., linear regression of kobs
observable: k2, second order rate constant (M⁻¹ s⁻¹)

C=C(OCC)c1nnc(CCC(=O)OC)nn1 :: 833
COC(=O)CCc1nnc(-c2ccccc2)nn1 :: 197.9
COC(=O)CCc1nnc(-c2cccc(C#N)c2)nn1 :: 69.88
C=C(OCC)c1nnc(-c2ccccc2)nn1 :: 2007
COC(=O)CCc1nncnn1 :: 1591

---

Target sequence: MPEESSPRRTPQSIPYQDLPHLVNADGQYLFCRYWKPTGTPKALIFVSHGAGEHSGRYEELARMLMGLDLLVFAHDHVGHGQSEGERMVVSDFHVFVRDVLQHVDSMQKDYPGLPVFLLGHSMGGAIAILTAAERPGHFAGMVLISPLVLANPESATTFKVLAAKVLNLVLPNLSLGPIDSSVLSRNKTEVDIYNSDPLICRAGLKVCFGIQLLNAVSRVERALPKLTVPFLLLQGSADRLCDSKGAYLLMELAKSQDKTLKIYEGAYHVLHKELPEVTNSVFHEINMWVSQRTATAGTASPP
pIC50: −log10 of the molar value.
pIC50: recorded values
observable: pIC50

O=C(OC(C(F)(F)F)C(F)(F)F)N1CCC(CNS(=O)(=O)c2ccc(-c3nncnn3)cc2)CC1 [100c] :: 7.80
C=C(OCC)c1nnc(-c2ccc(S(=O)(=O)NCC3CCN(C(=O)OC(C(F)(F)F)C(F)(F)F)CC3)cc2)nn1 [100b] :: 7.34
O=C(OC(C(F)(F)F)C(F)(F)F)N1CCC(CNS(=O)(=O)c2ccc(-c3nnc(-c4ccoc4)nn3)cc2)CC1 [100a] :: 7.92
Cc1nnc(-c2ccc(-n3ccc(C4CCN(C(=O)OC(C(F)(F)F)C(F)(F)F)CC4)n3)cc2)nn1 :: 7.51

---

Experiment: Tetrazine stability in PBS buffer in ambient light at 25° C.
Assay type: physicochemical
Settings: PBS buffer pH 7.4, ambient light, day 0-5
Reported values of decomposition per day for individual entries
observable: decomposition per day (%)

C=C(OCC)c1nnc(CCC(=O)OC)nn1 :: 3.9
COC(=O)CCc1nnc(-c2ccoc2)nn1 :: 1.7
COC(=O)CCc1nnc(-c2ccccc2)nn1 :: 1.8
C=C(OCC)c1nnc(-c2ccccc2)nn1 :: 0.8

---

// values below are reported kobs
Experiment: Stopped-flow kinetic analysis of tetrazines with eq-5-hydroxy-trans-cyclooctene in PBS buffer at 25° C.
Settings: TCO 0.30 mM, 0.025 mM tetrazine, PBS pH 7.4, 25° C.
observable: kobs (s⁻¹)

C=C(OCC)c1nnc(-c2ccccc2)nn1 [6a] :: 0.62
COC(=O)CCc1nnc(-c2cccc(C#N)c2)nn1 [5i] :: 0.24
C=C(OCC)c1nnc(CCC(=O)OC)nn1 [6c] :: 0.24
COC(=O)CCc1nncnn1 [4f] :: 0.61
COC(=O)CCc1nnc(-c2ccccc2)nn1 [5b] :: 0.065

---

Target: endogenous MAGL (Homo sapiens)
Test: Labeling of endogenous MAGL in live cells, gel-based ABPP with TCO-TAMRA
Details: human brain vascular pericytes, probe 1 h, then 2 μM TCO-TAMRA 30 min, in-gel fluorescence; read-out: cellular IC50 of MAGL labeling
observable: IC50 (nM)

Cc1nnc(-c2ccc(-n3ccc(C4CCN(C(=O)OC(C(F)(F)F)C(F)(F)F)CC4)n3)cc2)nn1 [compound 9] :: 8
